STUDY_SYSTEM: MAGI2_6, Q86UL8
Sequence (Q86UL8 1141-1229): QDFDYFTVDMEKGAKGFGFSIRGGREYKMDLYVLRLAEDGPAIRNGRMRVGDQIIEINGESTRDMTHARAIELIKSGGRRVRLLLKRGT
METHOD_SUMMARY: holdup assay
Parameters: key: below the threshold = too weak to quantify, mostly under pKd 3.1 to 4
CONDITION_DESCRIPTION: plain residues with an end cap or a label only (N-terminal biotin on a linker: ttds)
Recorded pKd for the following binders
// response body must contain only the number

// below: answered binders
In [3]: df
Out[3]:
                          binder  recorded_number
0       KQVVPFSSSV [GDA, Q9Y2T3]             4.02
1      FVETQHQTQV [FAT3, Q8TDW7]             3.77
2  GRLLGLETNV [ARHGEF26, Q96DR7]             4.39
3   NPDALPETLV [ARHGAP6, O43182]             4.31
4  PPRQRSETQV [HPV82-E6, Q9IR59]             3.46

Lab note: next binder to report on.
Lookup result for GARVSKETPL [MAPK12, P53778] ; measured pKd: 3.89
